Biological target: T1, recombinant human TIGIT (human, UniProt Q495A1 22-141, limits assumed)
T1 construct: recombinant human TIGIT used in Carterra SPR; also called hTIGIT
T1 sequence (looked up): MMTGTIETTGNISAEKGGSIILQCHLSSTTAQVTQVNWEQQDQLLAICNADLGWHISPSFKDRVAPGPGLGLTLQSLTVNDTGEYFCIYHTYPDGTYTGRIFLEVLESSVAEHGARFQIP
Assay: SPR Carterra, average
Procedure: Binding affinities of VHH-Fc proteins to recombinant human TIGIT were measured by SPR using a Carterra instrument (Table 10A). […] Average values reported from measurements from 1-2 samples.

BINDER	kon
TIGIT-SC185 (Fc fusion, VHH-Fc fusion in assay) VHH: EVQLVESGGGLVQPGGSLRLSCAASGRTFSFMGWFRQAPGKEREWVASVLRGGYTWYADSVKGRFTISADNSKNTAYLQMNSLKPEDTAVYYCTTDRGYNWNYDWGQGTLVTVSS	141000 M⁻¹ s⁻¹
TIGIT-SC71 (Fc fusion, VHH-Fc fusion in assay) VHH: EVQLVESGGGLVQPGGSLRLSCAASGSIRSLNAMGWFRQAPGKEREFVAAINWDSARTYYADSVKGRFTISADNSKNTAYLQMNSLKPEDTAVYYCARWSAKRHSDTMTYYMDVWGQGTLVTVSS	413000 M⁻¹ s⁻¹
TIGIT-SC85 (Fc fusion, VHH-Fc fusion in assay) VHH: EVQLVESGGGLVQPGGSLRLSCAASGRTFSPYTMGWFRQAPGKEREWVAGISQSGGSTAYADSVKGRFTISADNSKNTAYLQMNSLKPEDTAVYYCARDLNAMGDAYDIWGQGTLVTVSS	8760 M⁻¹ s⁻¹
TIGIT-SC27 (Fc fusion, VHH-Fc fusion in assay) VHH: EVQLVESGGGLVQPGGSLRLSCAASGLTFSNYVMGWFRQAPGKEREVVAGILSDGRELYADSVKGRFTISADNSKNTAYLQMNSLKPEDTAVYYCARDVFGEGHWGQGTLVTVSS	80900 M⁻¹ s⁻¹

These data points were gathered from patent US20260184782A1.
